System: HIV (IHV-1RF)
assay-protocol: Anti-viral (virucidal) assay: plate-bound HIV treated 10 minutes, C8166 cells added, syncytium score and XTT
Format: cell-based
applied-conditions: Human immunodeficiency virus 1, C8166; XTT, day 6; virus treated 10 minutes; read-out: IC50 (virucidal)
metric-name: IC50

query: Looking for the measured IC50 of COCCOCCOCCOCCOc1ccc(N2C(=O)C=CC2=O)cc1 [Compound 3, PEG(5) phenyl maleimide] , can you help?
result: > 1 mM

query: So what does the record say about IC50 for O=C1C=CC(=O)N1c1ccc(OCCOCCOCCOCCOc2ccc(N3C(=O)C=CC3=O)cc2)cc1 [Compound 2, PEG(5) bis phenyl bis maleimide] ?
result: ~1 mM

query: Entry O=C1C=CC(=O)N1CCN1C(=O)C=CC1=O [Compound 1, ethyl bis-maleimide] has what IC50?
result: 1 mM
